- target of assay: furin, P09958;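 also: purified furin at 1:10 enzyme:substrate in 50 mM HEPES pH 7.5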
- Sequence (P09958 whole entry): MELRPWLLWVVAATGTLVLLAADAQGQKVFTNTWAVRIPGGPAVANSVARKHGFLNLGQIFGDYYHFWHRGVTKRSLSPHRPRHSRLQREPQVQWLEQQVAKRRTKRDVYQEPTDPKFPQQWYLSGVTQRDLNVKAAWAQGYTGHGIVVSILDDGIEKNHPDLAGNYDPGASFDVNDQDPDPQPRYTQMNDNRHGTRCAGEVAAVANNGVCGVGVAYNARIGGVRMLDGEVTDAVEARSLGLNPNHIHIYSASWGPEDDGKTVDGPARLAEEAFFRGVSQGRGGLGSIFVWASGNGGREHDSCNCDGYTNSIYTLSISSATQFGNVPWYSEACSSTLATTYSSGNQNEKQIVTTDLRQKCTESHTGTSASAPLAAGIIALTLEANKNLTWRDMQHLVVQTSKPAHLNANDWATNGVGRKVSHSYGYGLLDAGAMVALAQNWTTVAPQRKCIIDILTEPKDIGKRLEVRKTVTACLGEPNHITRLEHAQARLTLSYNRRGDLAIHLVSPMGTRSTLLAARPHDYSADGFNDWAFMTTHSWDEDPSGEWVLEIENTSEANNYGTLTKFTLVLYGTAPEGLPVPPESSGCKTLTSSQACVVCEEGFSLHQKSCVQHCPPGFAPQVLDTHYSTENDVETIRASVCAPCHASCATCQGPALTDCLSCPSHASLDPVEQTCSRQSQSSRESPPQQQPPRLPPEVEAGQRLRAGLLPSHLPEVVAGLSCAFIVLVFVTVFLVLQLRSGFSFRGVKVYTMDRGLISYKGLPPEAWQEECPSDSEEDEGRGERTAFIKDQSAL
- assay explanation: furin cleavage Z-score vs untreated control; higher = more cleavage, active = 3.5 or more, inactive = 1 or less, 8 variable residues between constant flanks
- recorded conditions: 7.5 min
The other results are listed elsewhere or left out. How many sequences the whole screen found active is unknown.
Listed here are sequences together with their documented furin cleavage Z-score.
Number only, please.

CARSKRLLSDAGNASASA [FS-2524]    1.69
CARHTRSYDYAGNASASA [FS-1897]    1.79
CATRPCSGSWAGNASASA [HC1853]    -0.899
CARSIRDAEDAGNASASA [FS-2805]    0.647
CARSKRLMKRAGNASASA [FS-3264]    7.59

QUERY: Look up and report measured furin cleavage Z-score for this entry: CARMKRDTSLAGNASASA [FS-2354]
RESULT: 12.7

QUERY: Give recorded furin cleavage Z-score. CARHTPVNSWAGNASASA [HC1571]
RESULT: 1.44

QUERY: Please indicate furin cleavage Z-score recorded for CARIIRSSEDAGNASASA [FS-2950]
RESULT: 3.85

QUERY: Please look at this sequence and report its furin cleavage Z-score: CALIARDQLEAGNASASA [HC1587]
RESULT: 1.19

QUERY: Please report furin cleavage Z-score for the following sequence: CARHTRSIFWAGNASASA [FS-2147]
RESULT: 4.67

QUERY: Answer with the recorded furin cleavage Z-score of CAWKKPDYEPAGNASASA [HC1311] only.
RESULT: -0.0824

QUERY: In one line, give reported furin cleavage Z-score of the entry CASEPAPSGCAGNASASA [HC1345] .
RESULT: -2.17

QUERY: Specify furin cleavage Z-score for CATTPCSGFWAGNASASA [HC1907] and stop.
RESULT: -1.56

QUERY: Respond only with furin cleavage Z-score recorded for CAGMMLAEQFAGNASASA [HC1021]
RESULT: 0.171

QUERY: Quote furin cleavage Z-score reported for CARGDRFSEDAGNASASA [FS-2931] please.
RESULT: -1.45
